Quick reference for Hemolysis among some compounds
test system: rabbit red blood cells; test: Hemolytic activity; type: cell-based; conditions: 16 μg/mL; relative to Triton X-100
Where a SMILES comes first, the peptide text is derived from it. [ ]: non-standard residue; d: D form. The star is where a group is joined. Cha = N[C@@H](CC1CCCCC1)C(=O)O; Dab = NCC[C@H](N)C(=O)O; Bz = O=C(c1ccccc1)*
ASSAY METRIC: Hemolysis (%)

CC(C)C[C@H](NC(=O)[C@@H](Cc1ccccc1)NC(=O)[C@H](CCN)NC(=O)[C@H](Cc1ccccc1)NC(=O)[C@H](CCN)NC(=O)[C@@H](N)CC1CCCCC1)C(=O)N[C@@H](CCN)C(=O)N[C@H](CC(C)C)C(=O)N[C@@H](Cc1ccccc1)C(=O)N[C@@H](CO)C(N)=O [Analogue 17] (H-[Cha][Dab]F[Dab][dF]L[Dab][dL]FS-NH2) ... 0.60
CC[C@H](C)[C@H](NC(=O)[C@H](CCN)NC(=O)[C@@H](N)CC1CCCCC1)C(=O)N[C@@H](CCN)C(=O)N[C@H](Cc1ccccc1)C(=O)N[C@@H](CC(C)C)C(=O)N[C@@H](CCN)C(=O)N[C@@H](C(=O)N[C@@H](CC(C)C)C(=O)N[C@@H](CO)C(N)=O)C(C)C [Analogue 16] (H-[Cha][Dab]I[Dab][dF]L[Dab][dV]LS-NH2) ... 0.55
CC[C@H](C)[C@H](NC(=O)[C@H](CCN)NC(=O)c1ccccc1)C(=O)N[C@@H](CCN)C(=O)N[C@H](Cc1ccccc1)C(=O)N[C@@H](CC(C)C)C(=O)N[C@@H](CCN)C(=O)N[C@@H](C(=O)N[C@@H](CC(C)C)C(=O)N[C@@H](CO)C(N)=O)C(C)C [Analogue 14] (Bz-[Dab]I[Dab][dF]L[Dab][dV]LS-NH2) ... 0.22

----------
test system: rabbit red blood cells; assay: Hemolytic activity; format: cell-based; settings: 16 μg/mL; relative to Triton X-100
Where a SMILES comes first, the peptide text is derived from it. [ ]: non-standard residue; d: D form. The star is where a group is joined. Decanoyl = CCCCCCCCCC(=O)*; Heptanoyl = CCCCCCC(=O)*; Dab = NCC[C@H](N)C(=O)O
ASSAY METRIC: Hemolysis (%)

CCCCCCCCCC(=O)N[C@@H](CCN)C(=O)N[C@H](C(=O)N[C@@H](CCN)C(=O)N[C@H](Cc1ccccc1)C(=O)N[C@@H](CC(C)C)C(=O)N[C@@H](CCN)C(=O)N[C@@H](C(=O)N[C@@H](CC(C)C)C(=O)N[C@@H](CO)C(N)=O)C(C)C)[C@@H](C)CC [Analogue 12] (Decanoyl-[Dab]I[Dab][dF]L[Dab][dV]LS-NH2) ... 14.3
CCCCCCC(=O)N[C@@H](CCN)C(=O)N[C@@H](Cc1ccccc1)C(=O)N[C@@H](CCN)C(=O)N[C@H](Cc1ccccc1)C(=O)N[C@@H](CC(C)C)C(=O)N[C@@H](CCN)C(=O)N[C@H](CC(C)C)C(=O)N[C@@H](CC(C)C)C(=O)N[C@@H](CO)C(N)=O [Analogue 6] (Heptanoyl-[Dab]F[Dab][dF]L[Dab][dL]LS-NH2) ... 0.14

----------
Quick reference for Hemolysis among some compounds
test system: rabbit red blood cells; assay: Hemolytic activity; format: cell-based; conditions: 128 μg/mL; relative to Triton X-100
Where a SMILES comes first, the peptide text is derived from it. [ ]: non-standard residue; d: D form. The star is where a group is joined. Cha = N[C@@H](CC1CCCCC1)C(=O)O; Heptanoyl = CCCCCCC(=O)*; Octanoyl = CCCCCCCC(=O)*; Dab = NCC[C@H](N)C(=O)O
ASSAY METRIC: Hemolysis (%)

CC[C@H](C)[C@H](NC(=O)[C@H](CCN)NC(=O)[C@@H](N)CC1CCCCC1)C(=O)N[C@@H](CCN)C(=O)N[C@H](Cc1ccccc1)C(=O)N[C@@H](CC(C)C)C(=O)N[C@@H](CCN)C(=O)N[C@@H](C(=O)N[C@@H](CC(C)C)C(=O)N[C@@H](CO)C(N)=O)C(C)C [Analogue 16] (H-[Cha][Dab]I[Dab][dF]L[Dab][dV]LS-NH2) ... 1.63
CCCCCCC(=O)N[C@@H](CCN)C(=O)N[C@H](C(=O)N[C@@H](CCN)C(=O)N[C@H](Cc1ccccc1)C(=O)N[C@@H](CC(C)C)C(=O)N[C@@H](CCN)C(=O)N[C@H](CC(C)C)C(=O)N[C@@H](CC(C)C)C(=O)N[C@@H](CO)C(N)=O)[C@@H](C)CC [Analogue 5] (Heptanoyl-[Dab]I[Dab][dF]L[Dab][dL]LS-NH2) ... 26.5
CCCCCCCC(=O)N[C@@H](CCN)C(=O)N[C@H](C(=O)N[C@@H](CCN)C(=O)N[C@H](Cc1ccccc1)C(=O)N[C@@H](CC(C)C)C(=O)N[C@@H](CCN)C(=O)N[C@@H](C(=O)N[C@@H](CC(C)C)C(=O)N[C@@H](CO)C(N)=O)C(C)C)[C@@H](C)CC [Analogue 8, C8-Pat] (Octanoyl-[Dab]I[Dab][dF]L[Dab][dV]LS-NH2) ... 25.3

----------
Tested on: rabbit red blood cells
Assay: Hemolytic activity
Type: cell-based
Details: 64 μg/mL; relative to Triton X-100
Procedure: Hemolytic activity was evaluated using defibrinated rabbit blood in a 96-well plate as described previously. A nonionic surfactant Triton X-100, which is capable of lysing red blood cells (RBCs), was used at 0.1% as a positive control. […] The supernatant was transferred to a new 96-well plate for absorbance measurement at 415 nm using a Cell Imaging Multimode Reader (Cytation 3, BioTek; Winooski, Vt.). […]
Where a SMILES comes first, the peptide text is derived from it. [ ]: non-standard residue; d: D form. The star is where a group is joined. Heptanoyl = CCCCCCC(=O)*; Dab = NCC[C@H](N)C(=O)O
ASSAY METRIC: Hemolysis (%)

CCCCCCC(=O)N[C@@H](CCN)C(=O)N[C@H](C(=O)N[C@@H](CCN)C(=O)N[C@H](Cc1ccccc1)C(=O)N[C@@H](CC(C)C)C(=O)N[C@@H](CCN)C(=O)N[C@@H](C(=O)N[C@@H](CC(C)C)C(=O)N[C@@H](CO)C(N)=O)C(C)C)C(C)C [Analogue 2] (Heptanoyl-[Dab]V[Dab][dF]L[Dab][dV]LS-NH2) ... 0.79
CCCCCCC(=O)N[C@@H](CCN)C(=O)N[C@H](C(=O)N[C@@H](CCN)C(=O)N[C@H](Cc1ccccc1)C(=O)N[C@@H](CC(C)C)C(=O)N[C@@H](CCN)C(=O)N[C@@H](C(=O)N[C@@H](CC(C)C)C(=O)N[C@@H](CO)C(N)=O)C(C)C)[C@@H](C)CC [Analogue 3] (Heptanoyl-[Dab]I[Dab][dF]L[Dab][dV]LS-NH2) ... 1.18

----------
Quick reference for Hemolysis among some molecules
tested on: rabbit red blood cells; assay: Hemolytic activity; type: cell-based; conditions: 16 μg/mL; relative to Triton X-100
Where a SMILES comes first, the peptide text is derived from it. [ ]: non-standard residue; d: D form. The star is where a group is joined. ξ: configuration not given here. Heptanoyl = CCCCCCC(=O)*; Octanoyl = CCCCCCCC(=O)*; Dab = NCC[C@H](N)C(=O)O; ξDab = NCCC(N)C(=O)O
ASSAY METRIC: Hemolysis

CCCCCCC(=O)N[C@@H](CCN)C(=O)N[C@H](C(=O)N[C@@H](CCN)C(=O)N[C@H](Cc1ccccc1)C(=O)N[C@@H](CC(C)C)C(=O)N[C@@H](CCN)C(=O)N[C@H](CC(C)C)C(=O)N[C@@H](CC(C)C)C(=O)N[C@@H](CO)C(N)=O)[C@@H](C)CC [Analogue 5] (Heptanoyl-[Dab]I[Dab][dF]L[Dab][dL]LS-NH2) ... 0.96 ± 0.59%
CCCCCCCC(=O)N[C@@H](CCN)C(=O)NC(CCN)C(=O)N[C@@H](CCN)C(=O)N[C@H](Cc1ccccc1)C(=O)N[C@@H](CC(C)C)C(=O)N[C@@H](CCN)C(=O)N[C@@H](C(=O)N[C@@H](CC(C)C)C(=O)N[C@@H](CCN)C(N)=O)C(C)C (stereo partly drawn) [Analogue 10] (Octanoyl-[Dab][ξDab][Dab][dF]L[Dab][dV]L[Dab]-NH2) ... 0.37 ± 0.62%
CCCCCCC(=O)N[C@@H](CCN)C(=O)N[C@H](C(=O)N[C@@H](CCN)C(=O)N[C@H](Cc1ccccc1)C(=O)N[C@@H](CC(C)C)C(=O)N[C@@H](CCN)C(=O)N[C@@H](C(=O)N[C@@H](CC(C)C)C(=O)N[C@@H](CO)C(N)=O)C(C)C)[C@@H](C)CC [Analogue 3] (Heptanoyl-[Dab]I[Dab][dF]L[Dab][dV]LS-NH2) ... 0.18 ± 0.54%

Cited source: patent US11364275B2
